- target_or_test_system: T1, recombinant human glycophorin A ectodomain protein (human, UniProt P02724 20-91)
- T1 construct: 72 amino acids of the extracellular region; also called Hu-rec GPA
- T1 sequence: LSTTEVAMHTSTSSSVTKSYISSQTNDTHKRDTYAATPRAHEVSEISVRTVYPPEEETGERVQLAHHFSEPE
- assay: ELISA, Fab on coated recombinant human GPA ectodomain
observation_type: binding in ELISA relative to parental Fab

Could you share which binding in ELISA relative to parental Fab value was measured for TPP-5699, Hu6C12-24 Fab variant VL: (S49A, P54Q) (Fab, V domains shown, Built on the parental Fab TPP-4935) VH: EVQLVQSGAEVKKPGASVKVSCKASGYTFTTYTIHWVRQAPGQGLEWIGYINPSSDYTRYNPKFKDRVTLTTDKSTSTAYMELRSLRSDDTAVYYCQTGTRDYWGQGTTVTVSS VL: DIQLTQSPSFLSASVGDRVTITCSAASSVSYIYWFQQKPGKAPKLLIYATSTLQSGVPSRFSGSGSGTEYTLTISSLQPEDFATYYCHQRNSFPFTFGQGTKLEIKR ?
3.2 relative to parental Fab

Which value of binding in ELISA relative to parental Fab has been reported for TPP-5836, Hu6C12-24 Fab variant VL: (S24R, A26S, S49A, P54Q, F95Y); VH: (I48M, L70M, T72R) (Fab, V domains shown, Built on the parental Fab TPP-4935) VH: EVQLVQSGAEVKKPGASVKVSCKASGYTFTTYTIHWVRQAPGQGLEWMGYINPSSDYTRYNPKFKDRVTMTRDKSTSTAYMELRSLRSDDTAVYYCQTGTRDYWGQGTTVTVSS VL: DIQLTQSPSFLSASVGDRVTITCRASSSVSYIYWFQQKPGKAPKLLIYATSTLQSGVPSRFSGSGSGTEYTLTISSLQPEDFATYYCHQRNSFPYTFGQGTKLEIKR in the records?
4.1 relative to parental Fab

Which binding in ELISA relative to parental Fab value belongs to TPP-5835, Hu6C12-24 Fab variant VL: (S24R, A26S, S49A, P54Q, F95Y); VH: (I48M, L70M) (Fab, V domains shown, Built on the parental Fab TPP-4935) VH: EVQLVQSGAEVKKPGASVKVSCKASGYTFTTYTIHWVRQAPGQGLEWMGYINPSSDYTRYNPKFKDRVTMTTDKSTSTAYMELRSLRSDDTAVYYCQTGTRDYWGQGTTVTVSS VL: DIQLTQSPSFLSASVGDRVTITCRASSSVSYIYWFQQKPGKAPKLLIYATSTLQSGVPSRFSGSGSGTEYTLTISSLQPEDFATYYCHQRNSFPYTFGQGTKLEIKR ?
4.3 relative to parental Fab
